Each entry below carries its recorded inhibition at 10 µM.
# target-under-test: Human 5-lipoxygenase (Homo sapiens, UniProt P09917)
# Construct: purchased Cayman 60402; host or cells: insect cells
# Sequence (P09917 whole entry): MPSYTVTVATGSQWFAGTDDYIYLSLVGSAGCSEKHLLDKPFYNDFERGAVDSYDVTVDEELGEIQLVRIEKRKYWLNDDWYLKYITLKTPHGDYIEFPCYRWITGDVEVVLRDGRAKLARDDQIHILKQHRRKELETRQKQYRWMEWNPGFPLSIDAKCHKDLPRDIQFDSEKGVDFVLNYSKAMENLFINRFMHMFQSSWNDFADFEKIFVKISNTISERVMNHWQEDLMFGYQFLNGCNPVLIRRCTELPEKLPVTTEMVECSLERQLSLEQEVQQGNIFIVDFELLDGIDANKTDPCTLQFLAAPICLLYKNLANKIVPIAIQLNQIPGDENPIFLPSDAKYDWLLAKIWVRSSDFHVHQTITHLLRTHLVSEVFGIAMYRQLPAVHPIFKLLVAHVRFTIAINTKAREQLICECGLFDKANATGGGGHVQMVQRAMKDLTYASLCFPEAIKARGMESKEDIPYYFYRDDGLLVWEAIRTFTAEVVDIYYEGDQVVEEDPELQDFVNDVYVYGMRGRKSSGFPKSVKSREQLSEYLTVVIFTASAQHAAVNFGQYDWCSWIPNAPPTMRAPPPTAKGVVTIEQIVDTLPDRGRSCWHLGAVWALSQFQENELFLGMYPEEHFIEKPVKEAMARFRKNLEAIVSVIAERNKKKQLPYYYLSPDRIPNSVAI
# assay-protocol: Activity of compounds against 5-LO enzyme (LTB4 measurement and/or fluorescence method)
# Type: biochemical
# condition-set: 5-LO, single concentration of 10 uM in duplicate

Consider the following illustrative entries.
> print(dat)
                                   compound                         target.under.test           observable  result.value
1  CCc1nc2ccc(Cl)cn2c1C(=O)NCc1ccc2[nH]c(-c3ccc(OC(F)(F)F)cc3)nc2c1 [compound 185]  Human 5-lipoxygenase (Homo sapiens, UniProt P09917)  inhibition at 10 µM     40 to 69%
2  CCc1nc2ccc(Cl)cn2c1C(=O)NCc1nc2cc(Cl)ccc2n1C [compound 368]  Human 5-lipoxygenase (Homo sapiens, UniProt P09917)  inhibition at 10 µM         < 40%

Problem: Quick check: inhibition at 10 µM on Human 5-lipoxygenase (Homo sapiens, UniProt P09917), item CCc1nc2ccc(Cl)cn2c1C(=O)NCc1ccc(N2CCC(COC3CCCC3)CC2)cc1 [compound 285] ?
Result: < 40%

Problem: Same question, CCc1nc2cc(Cl)ccn2c1C(=O)NCc1ccc(-c2ccccc2C(F)(F)F)cc1 [compound 102] this time
Result: 40 to 69%

Problem: Thanks! And CCc1nc2cc(Cl)ccn2c1C(=O)NCc1ccc(N2CCC(O)CC2)cc1 [compound 199] ?
Result: < 40%

Problem: And CCc1nc2ccc(Cl)cn2c1C(=O)N1CCC(OCc2ccccc2F)CC1 [compound 337] ?
Result: < 40%

Problem: Thanks! And COC(=O)[C@H](Cc1ccccc1)NC(=O)c1c(C)nc2ccccn12 [compound 23] ?
Result: < 40%

Problem: Request: CCc1nc2c(-c3ccncc3)cccn2c1C(=O)NCc1ccc(N2CCOCC2)cc1 [compound 284]
Result: < 40%
